Data credit: ChEMBL document CHEMBL2218924

target: NUAK family SNF1-like kinase 1 (Homo sapiens); conditions: at 10 µM
outcome.measure: residual activity (%)
Numbers only, in %.

For orientation, consider the following solved cases.
- molecule: "CC(C)n1cnc2c(NCc3ccccc3)nc(NCCCO)nc21"
  residual activity [%]: 83
- molecule: "O=c1cc(-c2cccc3c2Sc2ccccc2S3)oc(N2CCOCC2)c1"
  residual activity [%]: 83
- molecule: "Oc1ccc(-c2nc(-c3ccc(F)cc3)c(-c3ccncc3)[nH]2)cc1"
  residual activity [%]: 93
- molecule: "CC[n+]1c(/C=C/N(C)c2ccccc2)n(-c2ccccc2)c2ccc(-c3nc4ccccc4s3)cc21"
  residual activity [%]: 89
- molecule: "NC(=O)c1ccc2[nH]c(-c3ccc(Oc4ccc(Cl)cc4)cc3)nc2c1"
  residual activity [%]: 85
- molecule: "O=C1Nc2cc(Br)ccc2/C1=C1/Nc2ccccc2/C1=N\\O"
  residual activity [%]: 18

For each listed entry, give its residual activity.
1. O=[N+]([O-])c1ccc(-c2nc(-c3ccc(F)cc3)c(-c3ccncc3)[nH]2)cc1
2. COc1cccc(-c2cc(=O)c3ccccc3o2)c1N

1: 89; 2: 93

For each listed entry, give its residual activity.
1. Nc1nc(Nc2ccc(S(N)(=O)=O)cc2)nn1C(=S)Nc1c(F)cccc1F
2. Cn1nc2c3c(cccc31)C(=O)c1ccccc1-2
3. CC#CC(=O)Nc1cc2c(Nc3ccc(F)c(Cl)c3)ncnc2cn1
4. COc1cc2ncnc(Nc3ccc(O)c(Br)c3)c2cc1OC
5. COc1cc2ncnc(N3CCN(C(=O)Nc4ccc(Oc5ccccc5)cc4)CC3)c2cc1OC
6. Oc1c2ccccc2c2c3c(cccc13)N=N2
7. COc1cc2ncnc(Nc3ccc(Oc4ccccc4)cc3)c2cc1OC
8. O=C1Nc2ccccc2/C1=C1/Nc2ccccc2/C1=N\OCCC(O)CO (stereo unspecified)

1: 0; 2: 31; 3: 86; 4: 36; 5: 82; 6: 17; 7: 79; 8: 5

----------
target: Protein kinase C eta type (Homo sapiens); conditions: at 1 µM
outcome.measure: residual activity (%)
Numbers only, in %.

- line.notation: "Oc1c2ccccc2c2c3c(cccc13)N=N2"
  units.text: "%"
  residual activity: 86
- line.notation: "Cc1cncc2cccc(S(=O)(=O)N3CCCN(C(=O)CN)C[C@H]3C)c12"
  units.text: "%"
  residual activity: 27
- line.notation: "O=C1NC(=O)/C(=C/c2ccc3c(c2)OC(F)(F)O3)S1"
  units.text: "%"
  residual activity: 120
- line.notation: "O=C1NC(=O)c2c1c1c3ccccc3[nH]c1c1[nH]c3cc(Br)ccc3c21"
  units.text: "%"
  residual activity: 72
- line.notation: "O=C1Nc2ccc(Br)cc2/C1=C\\c1cc2c([nH]1)CCCC2"
  units.text: "%"
  residual activity: 102

For each listed entry, give its residual activity.
1. COc1ccc(OC)c2c(=S)c3ccccc3[nH]c12
2. CO[C@H]1C[C@@H]2CC[C@@H](C)[C@@](O)(O2)C(=O)C(=O)N2CCCC[C@H]2C(=O)O[C@H]([C@H](C)C[C@@H]2CC[C@@H](O)[C@H](OC)C2)CC(=O)[C@H](C)/C=C(\C)[C@@H](O)[C@@H](OC)C(=O)[C@H](C)C[C@H](C)/C=C/C=C/C=C/1C
3. O=C1c2ccccc2-[n+]2ccc3c([nH]c4ccccc43)c21
4. COc1cccc(-c2cc(=O)c3ccccc3o2)c1N

1: 77; 2: 93; 3: 72; 4: 101
